test system: osteonectin; assay: Western blot of osteonectin expression after exposure to ASOs; format: cell-based, human; settings: MDA-MB231^F (growing without FBS); single exposure; lipofectamine; 10 μM
test-readout: osteonectin expression in relation to untreated control (100%)
# output: bare number, implied unit %

Example results:
1) 5′-GCGAGGGAGTTCTTCTTCTA-3′ (GCGAGGGAGTTCTTCTTCTA; phosphorothioate backbone, further chemistry not given here) [NSO, reference compound]	80
2) 5′-AGGTCACAGGTCTCGAAAAA-3′ (antisense AGGTCACAGGTCTCGAAAAA; all phosphorothioate, sugars by position and methylation of C not given here) [ASO-ON-6]	44

Moving on to the next substance.
In: GET /values?readout=osteonectin expression in relation to untreated control (100%)&item= 5′-CCATCATCAAATTCTCCTAC-3′ (antisense CCATCATCAAATTCTCCTAC; all phosphorothioate, sugars by position and methylation of C not given here) [ASO-ON-2]
Out: 17
